TGT: hMC4-R (Homo sapiens (Human))
Sequence (P32245 whole entry): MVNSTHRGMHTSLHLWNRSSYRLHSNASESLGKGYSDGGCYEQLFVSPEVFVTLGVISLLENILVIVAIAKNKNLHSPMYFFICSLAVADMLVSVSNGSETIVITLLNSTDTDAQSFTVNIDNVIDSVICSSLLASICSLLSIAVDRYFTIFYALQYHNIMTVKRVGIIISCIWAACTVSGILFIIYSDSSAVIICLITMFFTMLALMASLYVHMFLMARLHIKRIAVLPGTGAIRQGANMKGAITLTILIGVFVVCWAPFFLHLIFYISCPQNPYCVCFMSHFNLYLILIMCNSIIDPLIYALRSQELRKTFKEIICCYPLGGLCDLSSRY
PROCEDURE TEXT: Competitive inhibition binding assay using [I125]-NDP-α-MSH, hMC4-R
SETTINGS: membranes of HEK-293 cells expressing recombinant hMC4-R, read-out: MC4-R Ki
MEASUREMENT NAME: Ki (nM)

Reported Ki of CC(=O)N[C@@H](CCCNC(=N)N)C(=O)N[C@H]1CCC(=O)NCCC[C@@H](C(N)=O)NC(=O)[C@H](Cc2c[nH]c3ccccc23)NC(=O)[C@H](CCCNC(=N)N)NC(=O)[C@@H](Cc2ccccc2F)NC(=O)[C@H](CCC(N)=O)NC1=O : 7

P: CC(=O)N[C@@H](CCCNC(=N)N)C(=O)N[C@H]1CCC(=O)NCCC[C@@H](C(N)=O)NC(=O)[C@H](Cc2c[nH]c3ccccc23)NC(=O)[C@H](CCCNC(=N)N)NC(=O)[C@@H](Cc2cccc(Cl)c2)NC(=O)[C@@H]2C[C@@H](O)CN2C1=O
Q: CC(=O)N[C@@H](CCCNC(=N)N)C(=O)N[C@H]1CCC(=O)NCCC[C@@H](C(=O)O)NC(=O)[C@H](Cc2c[nH]c3ccccc23)NC(=O)[C@H](CCCNC(=N)N)NC(=O)[C@@H](Cc2cccc(Cl)c2)NC(=O)[C@H](CCCN)NC1=O
Query block: Compare reported Ki values for P and Q . Which is lower? Pick one and reply with its label.
Result block: P
